Quick reference: IC50 of the listed items.
# target: T1, CD3 expressed on cell-surface of primary human T cells (human, UniProt P07766 23-207; P04234 22-171)
# T1 construct: also called cell-surface CD3; human CD3
# T1 sequence (P07766 23-207 limits assumed, chain 1 of 2): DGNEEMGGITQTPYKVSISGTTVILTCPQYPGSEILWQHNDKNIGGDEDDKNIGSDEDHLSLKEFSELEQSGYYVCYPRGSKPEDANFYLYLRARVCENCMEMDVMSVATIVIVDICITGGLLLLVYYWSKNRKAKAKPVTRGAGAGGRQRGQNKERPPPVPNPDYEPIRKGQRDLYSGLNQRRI
# T1 sequence (P04234 22-171 limits assumed, chain 2 of 2): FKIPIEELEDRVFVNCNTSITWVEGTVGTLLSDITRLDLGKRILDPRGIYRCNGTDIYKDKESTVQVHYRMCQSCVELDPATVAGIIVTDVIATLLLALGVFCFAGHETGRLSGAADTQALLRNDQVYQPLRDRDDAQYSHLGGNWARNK
# protocol summary: flow cytometry competition vs murine SP34-AF488 on human T cells, n = 2

Known results for binders:
[
  {
    "binder": "huSP34.5.1 Fab-HF (Fab, V domains shown) VH: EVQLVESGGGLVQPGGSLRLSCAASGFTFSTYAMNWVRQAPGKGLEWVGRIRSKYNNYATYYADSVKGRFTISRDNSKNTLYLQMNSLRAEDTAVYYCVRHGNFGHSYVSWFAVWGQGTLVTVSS VL: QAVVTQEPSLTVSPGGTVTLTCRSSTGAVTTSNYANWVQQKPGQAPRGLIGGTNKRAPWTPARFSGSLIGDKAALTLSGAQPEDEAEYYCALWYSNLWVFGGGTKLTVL",
    "observed result": "> 20 µg/mL"
  },
  {
    "binder": "huSP34.2.4 Fab-HF (Fab, V domains shown) VH: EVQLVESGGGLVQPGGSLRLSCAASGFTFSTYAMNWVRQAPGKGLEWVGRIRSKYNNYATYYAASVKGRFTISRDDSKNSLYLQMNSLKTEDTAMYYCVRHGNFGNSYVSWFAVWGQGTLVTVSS VL: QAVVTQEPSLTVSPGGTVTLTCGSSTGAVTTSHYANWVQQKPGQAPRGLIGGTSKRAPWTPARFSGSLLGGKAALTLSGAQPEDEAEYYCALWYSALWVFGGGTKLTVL",
    "observed result": "> 20 µg/mL"
  }
]

Please examine the following record next.
Query: Can you share its IC50? I mean this binder: huSP34.4.4 Fab-HF (Fab, V domains shown) VH: EVQLVESGGGLVQPGGSLRLSCAASGFTFSTYAMNWVRQAPGKGLEWVGRIRSKYNNYATYYAASVKGRFTISRDDSKNSLYLQMNSLRTEDTAVYYCVRHGNFGHSYVSWFAVWGQGTLVTVSS VL: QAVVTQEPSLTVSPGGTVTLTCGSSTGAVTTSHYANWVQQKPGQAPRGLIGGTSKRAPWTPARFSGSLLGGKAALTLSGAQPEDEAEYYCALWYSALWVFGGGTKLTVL
Response: > 20 µg/mL
